Assay: Viability of human TPC1 cell line at 8 uM after 21 hrs
Format: cell-based
Details: TPC1 cells, read-out: Activity
Reported Property: viability at 21 h, 8 µM (%)
// return numeric value only (unit: %, not printed)

Ask: Recorded viability at 21 h, 8 µM for O=C(/C=C1\NC(=O)[C@@H]1Cl)OCc1ccccc1 , please?
Reply: 81

---

Test system: Haemophilus influenzae
Assay: Antibacterial activity against Haemophilus influenzae
Type: functional
Reported Property: MIC50

| Molecule | MIC50 |
| --- | --- |
| CCOC(=O)/C=C1\NC(=O)[C@@H]1[C@@H](C)OC(=O)c1cc(OCc2ccccc2)c(O)c(OCc2ccccc2)c1 | 128 µg/mL |
| COc1cc(C(=O)O[C@H](C)[C@H]2C(=O)N/C2=C\C(=O)O)cc(OC)c1O | 128 µg/mL |
| C[C@@H](O[Si](C)(C)C(C)(C)C)[C@H]1C(=O)N/C1=C\C(=O)OCc1ccccc1 | 128 µg/mL |
| CCOC(=O)/C=C1/NC(=O)[C@@H]1[C@@H](C)O[Si](C)(C)C(C)(C)C | 128 µg/mL |

Ask: Recorded MIC50 for CCOC(=O)C[C@H]1NC(=O)[C@@H]1[C@@H](C)O[Si](C)(C)C(C)(C)C , please?
Reply: 128 µg/mL

Ask: Recorded MIC50 for COc1cc(C(=O)O[C@H](C)[C@H]2C(=O)N/C2=C\C(=O)O)cc(OC)c1OC , please?
Reply: 128 µg/mL

Ask: Recorded MIC50 for CCOC(=O)/C=C1\NC(=O)[C@@H]1[C@@H](C)OC(=O)c1cc(OC)c(OC)c(OC)c1 , please?
Reply: 128 µg/mL

Ask: Recorded MIC50 for C[C@@H](O)[C@H]1C(=O)N/C1=C\C(=O)O , please?
Reply: > 128 µg/mL

Ask: Recorded MIC50 for C[C@@H](O)[C@H]1C(=O)N2C(C(=O)O)=C(SCCNC=N)C[C@H]12 [IMIPENEM ANHYDROUS] , please?
Reply: < 0.06 µg/mL

Origin of values: ChEMBL document CHEMBL1147665
